Data provenance: patent US8329675B2

# assayTarget: human FAAH (Homo sapiens)
# Construct: host or cells: COS-7 cells, transient transfection; 13,000 g membrane fraction solubilised in 1% Triton X-100
# Sequence (O00519 whole entry): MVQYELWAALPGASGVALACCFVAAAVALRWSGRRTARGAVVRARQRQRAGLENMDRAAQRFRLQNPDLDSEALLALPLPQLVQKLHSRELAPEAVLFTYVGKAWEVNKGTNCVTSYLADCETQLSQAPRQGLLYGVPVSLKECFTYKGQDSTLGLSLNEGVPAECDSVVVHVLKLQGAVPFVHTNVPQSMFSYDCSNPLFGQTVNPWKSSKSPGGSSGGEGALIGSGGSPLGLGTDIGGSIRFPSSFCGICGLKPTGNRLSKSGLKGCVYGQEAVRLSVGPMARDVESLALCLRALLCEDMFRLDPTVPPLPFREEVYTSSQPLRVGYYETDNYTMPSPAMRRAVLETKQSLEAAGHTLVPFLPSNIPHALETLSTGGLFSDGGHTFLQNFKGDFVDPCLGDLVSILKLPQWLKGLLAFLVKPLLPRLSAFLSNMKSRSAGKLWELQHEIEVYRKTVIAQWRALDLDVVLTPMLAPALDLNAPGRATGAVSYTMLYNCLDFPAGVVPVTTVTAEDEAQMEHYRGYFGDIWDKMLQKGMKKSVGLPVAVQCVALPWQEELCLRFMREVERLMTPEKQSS
# measurementProtocol: Human FAAH biochemical inhibition assay (AMC arachidonoyl amide fluorescence)
# assayConditions: Table 2, human FAAH (no asterisk); read-out: Activity (Ki)
Examples of compounds with documented Ki follow.

- lineNotation: "OB(O)c1ccc(-c2nc3ccccc3s2)cc1"
  result: "> 1000 nM"
- lineNotation: "OB(O)c1ccc(Oc2cc(F)cc(F)c2)cc1"
  result: "< 10 nM"

Lab book: Ki of COc1ccc(Oc2ccc(B(O)O)cc2)cc1Cl noted as < 10 nM

For CN(Cc1ccccc1)Cc1ccc(B(O)O)cc1 the compound record lists Ki as < 10 nM

The compound listed as OB(O)c1ccc(OCc2cccnc2)cc1F shows Ki equal to 10 to 100 nM

Measured Ki, CC(C)c1cccc(Oc2ccc(B(O)O)cc2)c1 : < 10 nM
